# EXPERIMENTAL TARGET: mitochondrial complex I (Bos taurus, UniProt P03887+P17694+P42026)
# Assay type: biochemical, bovine
pIC50: −log10 of the molar value.
MEASURED PARAMETER: pIC50

FC(F)(F)c1ccc(Oc2ccc(Nc3ncnc4ccccc34)cc2)cc1 : 5.49

====

# EXPERIMENTAL TARGET: respiratory complex I (Escherichia coli, UniProt P0AFC7+P0AFD4+P33599)
# MEASUREMENT DESCRIPTION: d-NADH:decyl-ubiquinone oxidoreductase activity of E. coli CBO cytoplasmic membranes
# CONDITION SUMMARY: 1 mM KCN
pIC50: −log10 of the molar value.
MEASURED PARAMETER: pIC50

FC(F)(F)c1ccc(Oc2ccc(Nc3ncnc4ccccc34)cc2)cc1 : 6.92

====

# EXPERIMENTAL TARGET: E. coli bd-II oxidase (Escherichia coli, UniProt P26459)
# Construct: His-tag
# Sequence (P26458 whole entry): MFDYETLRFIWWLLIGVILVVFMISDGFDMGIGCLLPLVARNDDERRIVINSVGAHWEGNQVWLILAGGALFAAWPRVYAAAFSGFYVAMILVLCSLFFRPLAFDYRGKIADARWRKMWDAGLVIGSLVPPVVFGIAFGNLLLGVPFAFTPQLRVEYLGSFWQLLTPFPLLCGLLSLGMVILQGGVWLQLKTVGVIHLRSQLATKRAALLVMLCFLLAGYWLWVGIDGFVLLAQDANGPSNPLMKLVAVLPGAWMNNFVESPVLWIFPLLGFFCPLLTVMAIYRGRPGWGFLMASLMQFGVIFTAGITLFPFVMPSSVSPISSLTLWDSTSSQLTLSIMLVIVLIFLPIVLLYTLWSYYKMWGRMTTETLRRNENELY
# Sequence (P24244 whole entry, further chain): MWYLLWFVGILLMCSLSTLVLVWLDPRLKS
# Sequence (P26459 whole entry): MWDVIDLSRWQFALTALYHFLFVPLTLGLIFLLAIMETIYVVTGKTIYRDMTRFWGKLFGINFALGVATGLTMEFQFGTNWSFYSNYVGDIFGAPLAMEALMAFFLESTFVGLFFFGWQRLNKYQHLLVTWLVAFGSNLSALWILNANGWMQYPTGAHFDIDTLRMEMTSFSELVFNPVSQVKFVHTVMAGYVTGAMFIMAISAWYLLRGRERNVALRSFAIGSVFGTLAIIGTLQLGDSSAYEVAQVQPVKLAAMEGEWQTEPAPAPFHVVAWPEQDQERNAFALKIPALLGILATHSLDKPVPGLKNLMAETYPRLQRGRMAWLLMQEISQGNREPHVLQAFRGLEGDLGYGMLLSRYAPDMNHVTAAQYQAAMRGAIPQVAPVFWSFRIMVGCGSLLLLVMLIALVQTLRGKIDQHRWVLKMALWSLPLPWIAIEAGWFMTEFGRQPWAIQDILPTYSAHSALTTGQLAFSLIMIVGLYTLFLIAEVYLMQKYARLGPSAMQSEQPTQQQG
# MEASUREMENT DESCRIPTION: Duroquinol:oxygen oxidoreductase activity of isolated bd-II oxidase
pIC50: −log10 of the molar value.
pIC50 values by entry
MEASURED PARAMETER: pIC50

FC(F)(F)c1ccc(Oc2ccc(Nc3ncnc4ccc(Br)cc34)cc2)cc1 : 6.89
FC(F)(F)c1ccc(Oc2ccc(Nc3ncnc4ccccc34)cc2)cc1 : 5.89

====

# EXPERIMENTAL TARGET: E. coli bd-I oxidase (Escherichia coli, UniProt P0ABJ9)
# Construct: His-tag
# Sequence (P0ABJ9 whole entry): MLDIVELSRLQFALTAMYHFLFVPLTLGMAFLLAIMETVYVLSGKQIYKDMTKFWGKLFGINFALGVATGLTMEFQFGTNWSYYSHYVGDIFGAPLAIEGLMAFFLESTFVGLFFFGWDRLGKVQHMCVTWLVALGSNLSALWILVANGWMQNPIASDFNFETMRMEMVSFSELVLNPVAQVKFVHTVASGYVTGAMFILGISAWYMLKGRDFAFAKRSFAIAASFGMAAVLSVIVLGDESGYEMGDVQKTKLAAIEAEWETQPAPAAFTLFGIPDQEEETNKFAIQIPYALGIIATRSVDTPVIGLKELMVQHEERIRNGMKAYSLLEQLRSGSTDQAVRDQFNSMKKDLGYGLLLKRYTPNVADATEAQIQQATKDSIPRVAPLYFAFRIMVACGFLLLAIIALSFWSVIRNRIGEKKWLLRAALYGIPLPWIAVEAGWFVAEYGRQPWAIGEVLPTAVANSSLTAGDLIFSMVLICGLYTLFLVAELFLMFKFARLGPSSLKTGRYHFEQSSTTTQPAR
# Sequence (P56100 whole entry, further chain): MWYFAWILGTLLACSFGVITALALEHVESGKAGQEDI
# Sequence (P0ABK2 whole entry, further chain): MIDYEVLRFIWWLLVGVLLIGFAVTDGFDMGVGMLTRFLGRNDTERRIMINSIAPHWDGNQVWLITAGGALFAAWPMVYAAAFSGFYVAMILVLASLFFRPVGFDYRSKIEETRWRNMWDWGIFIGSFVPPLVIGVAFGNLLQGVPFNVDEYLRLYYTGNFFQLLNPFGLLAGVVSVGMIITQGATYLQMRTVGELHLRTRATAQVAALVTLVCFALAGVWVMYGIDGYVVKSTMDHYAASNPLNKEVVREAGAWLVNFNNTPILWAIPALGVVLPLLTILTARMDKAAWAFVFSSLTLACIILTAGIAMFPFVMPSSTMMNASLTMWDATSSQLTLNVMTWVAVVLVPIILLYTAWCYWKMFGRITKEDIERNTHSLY
# MEASUREMENT DESCRIPTION: Duroquinol:oxygen oxidoreductase activity of isolated bd-I oxidase
Below, each of the molecules is paired with its reported IC50 value.
MEASURED PARAMETER: IC50 (nM)

FC(F)(F)c1ccc(Oc2ccc(Nc3ncnc4ccc(Br)cc34)cc2)cc1 : 1030
FC(F)(F)c1ccc(Oc2ccc(Nc3ncnc4ccccc34)cc2)cc1 : 630
